# System: OVCAR-8
# TEST_NAME: NCI tumour cell line growth inhibition, 48 h
Activity calls are given as the source filed them. Rule as the data show it: active = GI50 up to about 1.1 µM and inactive = higher.
Pick one and only one: 1 for active, -1 for inactive

Record excerpt, results attached:
COMPOUND	ASSIGNED_LABEL
CCNc1nc(N)c(C(=O)c2cccs2)s1	-1
C/C(=N\NC(=S)NC(CCC(=O)O)C(=O)O)c1cnccn1 (configuration not stated)	-1
CCOC(=O)C1=C(OC(OCC)C(CC)[Se]c2ccccc2)CCC1 (configuration not stated)	-1
CCOC(=O)c1c(SC(=O)/C=C/c2ccccc2)n(-c2ccccc2)c(=S)n(-c2ccccc2)c1=O	-1
COc1cc2c(c(OC)c1OC)-c1c(cc3c(c1OC)OCO3)CC(C)C(C)(O)C2OC(=O)c1ccccc1 (configuration not stated)	-1
Cc1cc(N(CCC#N)CCC#N)ccc1/C=C1N=C(/C=C\c2ccccc2)N(NC(=O)CC(=O)Nc2ccccc2Cl)C\1=O	-1
CCOP(=O)(OCC)OC(C#N)c1ccc(-c2ccccc2)cc1 (configuration not stated)	-1
CC(C)NC(=O)OCc1c(COC(=O)NC(C)C)c(-c2ccc[n+](COC(=O)Cc3ccccc3)c2)n2c1CCC2	-1
CCCC1N2CCCCC2[C@@H]2c3[nH]c4ccccc4c3CCN12 (some centres not stated)	-1
CC(=O)NCC1OC2COC(c3ccccc3)OC2C2N=C(c3ccccc3)OC12 (configuration not stated)	-1

I would be grateful if you could indicate the recorded call for Nc1nc(Cl)cc(NCC2(CO)CC(OCc3ccccc3)C2)n1 (configuration not stated) .
-1

I would be grateful if you could indicate the recorded call for [N-]=[N+]=NC1CC(n2ccc(N)nc2=O)OC1COP(=O)(O)OP(=O)(O)OP(=O)(O)O (configuration not stated) .
-1

I would be grateful if you could indicate the recorded call for N#Cc1c(-c2ccccc2)cc(-c2ccc(N)cc2)[nH]c1=O .
-1

I would be grateful if you could indicate the recorded call for C/C(=N\NC(=S)NC(C)(C)C)c1nc2cccnc2[nH]1 .
-1

I would be grateful if you could indicate the recorded call for O=[N+]([O-])c1ccc2c(c1)n1c(N3CCCC3)[n+]3ccccc3c1c1c3ccccn3c(N3CCCC3)[n+]21.[O-][Cl+3]([O-])([O-])[O-].[O-][Cl+3]([O-])([O-])[O-] .
-1

I would be grateful if you could indicate the recorded call for COC1/C=C\OC2(C)Oc3c(C)c(O)c4c(O)c(c(/C=N\OCCCc5ccccc5)c(O)c4c3C2=O)NC(=O)/C(C)=C\C=C/C(C)C(O)C(C)C(O)C(C)C(OC(C)=O)C1C (configuration not stated) .
-1

I would be grateful if you could indicate the recorded call for CCOc1ccc(NC(=O)/C(CC(=O)c2c[n+]([O-])c3ccccc3[n+]2[O-])=N\OCCCc2ccccc2)cc1 .
-1

I would be grateful if you could indicate the recorded call for Cc1c2cc[n+](CCN3CCCCC3)cc2c(C)c2c1[nH]c1ccc(O)cc12 .
-1

I would be grateful if you could indicate the recorded call for O=C(NC12CC3CC(CC(C3)C1)C2)n1cnc2cncnc21 .
-1

I would be grateful if you could indicate the recorded call for CS(=O)(=O)C(=Cc1ccccc1Cl)S(C)(=O)=O .
-1

I would be grateful if you could indicate the recorded call for c1ccc(SC2(Sc3ccccc3)CCCC2)cc1 .
-1

I would be grateful if you could indicate the recorded call for Cc1cc(C)nc(NS(=O)(=O)c2ccc(NNc3c4ccccc4nc4c(C(=O)Nc5ccc(S(=O)(=O)Nc6cc(C)on6)cc5)cccc34)cc2)n1 .
-1

I would be grateful if you could indicate the recorded call for COc1cc(CSc2ccc(O)cc2)cc(O)c1O .
-1

I would be grateful if you could indicate the recorded call for O=C1NN(c2ccccc2)C(=O)C2C3c4ccccc4C(c4ccccc43)C12 (configuration not stated) .
-1
